- experiment notes: NCI Yeast Anticancer Drug Screen. Data for the sgs1 strain (AID 173);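 also: 0% = growth of vehicle-only control cultures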
- recorded conditions: S. cerevisiae sgs1 mutant, at 3.7 µM, active compounds read high
The panel holds about 79,000 compounds, 15% with a hit somewhere; the sample as a whole holds those more often.
property label: growth inhibition (%)
Write the answer as a number in %, unit excluded.

Would you kindly share the measured growth inhibition for "Cn1c(-c2ccc(/C=N\N3CCN(/N=C/c4ccc(-c5c[n+]6ccsc6n5C)cc4)CC3)cc2)c[n+]2ccsc12" ?
32

Would you kindly share the measured growth inhibition for OC(Cc1cccc2ccccc12)CN1CCC(c2ccccc2)CC1 (stereo not given) ?
59

Would you kindly share the measured growth inhibition for O=C(O)c1cc2c(cc1S(=O)(=O)O)C1C(C3C2C2(Cl)C(Cl)=C(Cl)C3(Cl)C2(Cl)Cl)C2(Cl)C(Cl)=C(Cl)C1(Cl)C2(Cl)Cl (stereo not given) ?
-1

Would you kindly share the measured growth inhibition for "Nc1cccc(-c2cc[cH-]c2)c1.[Fe+2].c1cc[cH-]c1" ?
-30

Would you kindly share the measured growth inhibition for O=C1CC(C(O)(C(F)(F)F)C(F)(F)Cl)CCC1C(O)(C(F)(F)F)C(F)(F)Cl (stereo not given) ?
62

Would you kindly share the measured growth inhibition for "COc1ccc2nc(CCc3ccccc3)ccc2c1" ?
-17

Would you kindly share the measured growth inhibition for "C1=CCN([B-](c2ccccc2)[C+]2CCCCC2)C=C1" ?
-2

Would you kindly share the measured growth inhibition for "Cc1ccc(S(=O)(=O)N/N=C/C(Br)=C(/Br)C(=O)O)cc1" ?
38

Would you kindly share the measured growth inhibition for "O=[N+]([O-])[O][Sn]([O][Sn]([O][N+](=O)[O-])([c]1ccccc1)[c]1ccccc1)([c]1ccccc1)[c]1ccccc1" ?
-12

Would you kindly share the measured growth inhibition for "S=C(NCc1ccccn1)N/N=C/c1ccccn1" ?
98

###

- experiment notes: NCI Yeast Anticancer Drug Screen. Data for the rad52 strain (AID 147);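 also: 0% = growth of vehicle-treated control cultures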
- recorded conditions: S. cerevisiae rad52 mutant growth inhibition; at 1.2 µM; active compounds read high
The panel holds about 79,000 compounds, 15% with a hit somewhere; the sample as a whole holds those more often.
property label: growth inhibition (%)
Write the answer as a number in %, unit excluded.

Would you kindly share the measured growth inhibition for "O=[N+]([O-])c1cc(Cl)ccc1S(=O)(=O)c1ccc(Cl)cc1[N+](=O)[O-]" ?
-25

Would you kindly share the measured growth inhibition for CC1(c2ccccc2)O[C@@H]2C[C@H]3[C@@H]4CCC5=CC(=O)C=C[C@]5(C)[C@@]4(F)[C@@H](O)C[C@]3(C)[C@]2(C(=O)CO)O1 (stereo partly specified) ?
-3

Would you kindly share the measured growth inhibition for "Cc1cc2nc3ccccc3n2c2ccccc12" ?
-33

Would you kindly share the measured growth inhibition for CC(C)C(=O)CC(Sc1ccc(N)cc1)c1ccccc1 (stereo unspecified) ?
2

Would you kindly share the measured growth inhibition for "O=Cc1ccccc1C=O" ?
-13

Would you kindly share the measured growth inhibition for C/C1=C/C2OC(=O)C3(C)C2C(CC2(C)OC1=CC2=O)OC3(O)C(C)C (stereo unspecified) ?
-27

Would you kindly share the measured growth inhibition for "CS(=O)(=O)O.[Ag]" ?
72

Would you kindly share the measured growth inhibition for "C[n+]1c(-c2ccc(/C=N/NC(=O)c3ccc(C(=O)N/N=C/c4ccc(-c5cn6ccccc6[n+]5C)cc4)cc3)cc2)cn2ccccc21" ?
5

Would you kindly share the measured growth inhibition for "O=C(O)c1ccc2cc(Cl)c3ccccc3c2c1" ?
1

Would you kindly share the measured growth inhibition for COc1ccc2c(c1)CCCC(Br)C2=O (stereo unspecified) ?
12

Would you kindly share the measured growth inhibition for "CCOC(=O)/C(=C/c1cccc(Cl)c1)N(CC)CC" ?
10
